# Study System: human AT1 receptor (Homo sapiens)
# Construct: expressed in transfected cells; host or cells: CHO-K1
# Sequence (P30556 1-359): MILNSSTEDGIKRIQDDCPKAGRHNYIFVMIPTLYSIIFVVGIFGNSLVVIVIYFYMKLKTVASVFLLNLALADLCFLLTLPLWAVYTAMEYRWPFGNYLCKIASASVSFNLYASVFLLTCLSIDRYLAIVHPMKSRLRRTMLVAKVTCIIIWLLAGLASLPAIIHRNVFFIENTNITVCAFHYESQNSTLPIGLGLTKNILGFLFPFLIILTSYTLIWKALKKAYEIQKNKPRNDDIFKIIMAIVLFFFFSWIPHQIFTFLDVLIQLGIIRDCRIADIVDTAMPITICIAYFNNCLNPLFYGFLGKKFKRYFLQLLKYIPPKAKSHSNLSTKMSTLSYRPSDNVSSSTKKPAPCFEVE
# Experiment: Binding assay using human AT1 receptor-expressing CHO-K1 cell membrane fraction ([125I]-angiotensin II)
# Settings: 22.5 pM [125I]-angiotensin II, 9 μg AT1 membrane, 1 hr room temperature; read-out: AT1 receptor binding inhibitory action (IC50 (nM))
Assay Readout: IC50 (nM)
// units = nM; emit number, no label

Please review the following examples before continuing.
Compound: CCCc1nc(C)n(-c2ccc(OC(C)C)cc2)c(=O)c1Cc1ccc(-c2ccccc2-c2noc(O)n2)cc1
IC50, nM: 1.7

Compound: CCCc1nc(CC)n(-c2ccc(OC3(CO)CCCC3)cc2)c(=O)c1Cc1ccc(-c2ccccc2-c2noc(=O)[nH]2)cc1
IC50, nM: 1.2

Compound: CCCCc1nc(C)n(-c2ccccc2)c(=O)c1Cc1c(F)cc(-c2ccccc2-c2noc(=O)[nH]2)cc1F
IC50, nM: 1.6

Compound: CCCc1nc(CC)n(-c2ccc(OC(C)(C)C(C)=O)cc2)c(=O)c1Cc1ccc(-c2ccccc2-c2noc(=O)[nH]2)cc1
IC50, nM: 1.2

Compound: CCCc1nc(CC)c(Oc2cc(F)ccc2F)c(=O)n1Cc1ccc(-c2ccccc2-c2noc(=O)[nH]2)cc1
IC50, nM: 2.3

// field: IC50; key: CCCc1nc(C)c(CC2CCCCO2)c(=O)n1Cc1ccc(-c2ccccc2-c2noc(=O)[nH]2)cc1 (stereo not shown) ; value = 1.4

// field: IC50; key: CCCCc1nc(C)n(CC23CC4CC(CC(C4)C2)C3)c(=O)c1Cc1ccc(-c2ccccc2-c2noc(=O)[nH]2)cc1 ; value = 1.5

====

# Study System: human AT1 receptor (Homo sapiens)
# Construct: expressed in transfected cells; host or cells: CHO-K1
# Experiment: Binding assay using human AT1 receptor-expressing CHO-K1 cell membrane fraction ([125I]-angiotensin II)
# Settings: 22.5 pM [125I]-angiotensin II, 9 μg AT1 membrane, 1 hr room temperature; read-out: AT1 receptor binding inhibitory action (IC50 (nM))
Output true for records whose IC50 is lower than 2 nM, false for records at or above 2 nM.

Example results:
Chemical Smiles: CCCc1nc(CC)c(-c2ccc(OC(C)C)c(F)c2)c(=O)n1Cc1ccc(-c2ccccc2-c2noc(=O)[nH]2)cc1
Assigned Category: false

Chemical Smiles: CCCc1nc(C)c(-c2ccc(OCC3CC3)nc2)c(=O)n1Cc1ccc(-c2ccccc2-c2noc(=O)[nH]2)cc1F
Assigned Category: false

Chemical Smiles: CCCCc1nn(-c2ccc3c(c2)CC(C)(C)O3)c(=O)n1Cc1ccc(-c2ccccc2-c2noc(=O)[nH]2)cc1
Assigned Category: false

Field: below-cutoff. Rule: recorded IC50 strictly less than 2 nM. Subject: CCCCc1nc(C)n(Cc2ccc(OC)nc2)c(=O)c1Cc1ccc(-c2ccccc2-c2noc(=O)[nH]2)cc1
true

Field: below-cutoff. Rule: recorded IC50 strictly less than 2 nM. Subject: CCCCc1nc(C)n(-c2cccc(C(C)(C)O)c2)c(=O)c1Cc1ccc(-c2ccccc2-c2noc(=O)[nH]2)cc1
true
